Entry source: patent US20190077774A1

# target_system: human PPARα (Homo sapiens, UniProt Q07869)
# Construct: expressed in transfected cells; host or cells: CV-1 (monkey kidney) cells, transient transfection
# Sequence (Q07869 159-468): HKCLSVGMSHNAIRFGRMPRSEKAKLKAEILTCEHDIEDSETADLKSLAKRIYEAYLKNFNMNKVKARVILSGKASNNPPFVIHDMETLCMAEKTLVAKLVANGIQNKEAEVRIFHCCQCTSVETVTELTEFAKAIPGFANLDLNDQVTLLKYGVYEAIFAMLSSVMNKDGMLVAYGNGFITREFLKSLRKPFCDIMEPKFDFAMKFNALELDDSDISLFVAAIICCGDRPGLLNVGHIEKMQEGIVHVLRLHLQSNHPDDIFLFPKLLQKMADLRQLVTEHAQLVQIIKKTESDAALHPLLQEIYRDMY
# experiment_summary: PPAR-GAL4 transactivation assay in transiently transfected CV-1 cells
# Assay type: cell-based
# condition_context: PPAR-GAL4 chimeric receptor, CV-1 cells; read-out: EC50(nM) hPPARα
Quick rule for you: EC50 under 2 nM gets Y, anything else gets N.

Observe how each entry below is paired with its result.
INSERT INTO measurements (compound, classification) VALUES
  ('Cc1ccc(Cn2nc(CCCc3ccc(OC(C)(C)C(=O)O)cc3)n(Cc3ccc(C)cc3)c2=O)cc1 [10e]', 'Y'),
  ('Cc1ccc(Cn2nc(CCCc3ccc(OC(C)(C)C(=O)O)cc3)n(Cc3ccccc3)c2=O)cc1 [10c]', 'Y'),
  ('C=Cc1ccc(Cn2nc(CCCc3ccc(OC(C)(C)C(=O)O)cc3)n(Cc3ccc(C)cc3)c2=O)cc1 [10h]', 'N');

**Query** Please indicate whether the reported EC50 of Cc1ccc(Cn2nc(CCCc3ccc(OC(C)(C)C(=O)O)cc3)n(Cc3ccccc3Cl)c2=O)cc1 [10g] is strictly below 2 nM.
**Result** Y

**Query** Please indicate whether the reported EC50 of COc1cc(Cn2c(CCCc3ccc(OC(C)(C)C(=O)O)cc3)nn(Cc3ccc(C)cc3)c2=O)cc(OC)c1OC [10f] is strictly below 2 nM.
**Result** N

**Query** Please indicate whether the reported EC50 of Cc1ccc(Cn2nc(CCCc3ccc(OC(C)(C)C(=O)O)cc3)n(Cc3ccc(F)cc3)c2=O)cc1 [10d] is strictly below 2 nM.
**Result** Y

* * *

# target_system: mouse PPARα (Mus musculus, UniProt P23204)
# Construct: expressed in transfected cells; host or cells: CV-1 (monkey kidney) cells, transient transfection
# Sequence (P23204 159-468): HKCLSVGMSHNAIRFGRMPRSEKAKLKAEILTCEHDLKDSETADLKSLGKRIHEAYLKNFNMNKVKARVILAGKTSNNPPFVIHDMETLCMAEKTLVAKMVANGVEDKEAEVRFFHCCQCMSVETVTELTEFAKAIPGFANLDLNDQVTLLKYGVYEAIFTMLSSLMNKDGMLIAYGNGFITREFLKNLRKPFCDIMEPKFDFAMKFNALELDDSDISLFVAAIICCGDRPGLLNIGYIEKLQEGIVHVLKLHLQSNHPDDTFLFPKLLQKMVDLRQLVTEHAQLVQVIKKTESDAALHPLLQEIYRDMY
# experiment_summary: PPAR-GAL4 transactivation assay in transiently transfected CV-1 cells
# Assay type: cell-based
# condition_context: PPAR-GAL4 chimeric receptor, read-out: EC50(nM) mPPARα
value_kind: EC50
Please state the number and follow it with the unit.

INSERT INTO results (molecule, target_system, value_kind, value_reported) VALUES
  ('C=Cc1ccc(Cn2nc(CCCc3ccc(OC(C)(C)C(=O)O)cc3)n(Cc3ccc(C)cc3)c2=O)cc1 [10h]', 'mouse PPARα (Mus musculus, UniProt P23204)', 'EC50', '20 nM'),
  ('COc1cccc(Cn2c(CCCc3ccc(OC(C)(C)C(=O)O)cc3)nn(Cc3ccc(C)cc3)c2=O)c1 [10b]', 'mouse PPARα (Mus musculus, UniProt P23204)', 'EC50', '20 nM'),
  ('Cc1ccc(Cn2nc(CCCc3ccc(OC(C)(C)C(=O)O)cc3)n(Cc3ccc(F)cc3)c2=O)cc1 [10d]', 'mouse PPARα (Mus musculus, UniProt P23204)', 'EC50', '10 nM'),
  ('Cc1ccc(Cn2nc(CCCc3ccc(OC(C)(C)C(=O)O)cc3)n(Cc3ccccc3)c2=O)cc1 [10c]', 'mouse PPARα (Mus musculus, UniProt P23204)', 'EC50', '20 nM'),
  ('COc1cc(Cn2c(CCCc3ccc(OC(C)(C)C(=O)O)cc3)nn(Cc3ccc(C)cc3)c2=O)cc(OC)c1OC [10f]', 'mouse PPARα (Mus musculus, UniProt P23204)', 'EC50', '30 nM'),
  ('Cc1ccc(Cn2nc(CCCc3ccc(OC(C)(C)C(=O)O)cc3)n(Cc3ccc(C)cc3)c2=O)cc1 [10e]', 'mouse PPARα (Mus musculus, UniProt P23204)', 'EC50', '3 nM'),
  ('Cc1ccc(Cn2nc(CCCc3ccc(OC(C)(C)C(=O)O)cc3)n(Cc3ccccc3Cl)c2=O)cc1 [10g]', 'mouse PPARα (Mus musculus, UniProt P23204)', 'EC50', '10 nM');

Shift focus to the following entry.
**Query** Quick check: EC50 of COc1ccc(Cn2c(CCCc3ccc(OC(C)(C)C(=O)O)cc3)nn(Cc3ccc(C)cc3)c2=O)cc1 [10a] ?
**Result** 3 nM
